Would you kindly list TGI for each of these compounds?
test system: A498 renal; assay: NCI tumour cell line growth inhibition, 48 h
Give your result in µM as a bare value.

Answer with reported TGI of `O=C(CCc1nnc2sc(-c3ccc(Cl)cc3Cl)nn12)c1nc2ncccc2[nH]1`
2.41

Answer with reported TGI of `C=C1C(=O)O[C@H]2[C@H]1CC/C(COC(=O)c1c[nH]c3ccccc13)=C\CC[C@@]1(C)O[C@@H]21`
1.03

Answer with reported TGI of Cc1cccc2c1CC1(C2)Cc2c(C)cccc2C1=O (stereo not drawn)
88.9

Answer with reported TGI of `CC(C)OP(=O)(OC(C)C)C(=NCCN=C(NNc1ccc([N+](=O)[O-])cc1)P(=O)(OC(C)C)OC(C)C)NNc1ccc([N+](=O)[O-])cc1`
60.3

====

test system: OVCAR-8 ovarian; assay: NCI tumour cell line growth inhibition, 48 h
assay-readout: TGI

Answer with reported TGI of `C[Si](C)(C)C1(Sc2ccccc2)SCCCS1`
> 100 µM

Answer with reported TGI of COc1ncnc(NS(=O)(=O)c2ccc(N=C3C(=O)N(CN4CCN(c5c(F)cc6c(=O)c(C(=O)O)cn(C7CC7)c6c5OC)CC4C)c4ccc(Cl)cc43)cc2)c1OC (configuration not stated)
> 50 µM

Answer with reported TGI of O=C(CC(C(=O)c1ccsc1)c1ccc2c(c1)OCO2)c1ccccc1 (configuration not stated)
> 100 µM

Answer with reported TGI of `OCCc1ccsc1-c1sc(-c2cc(CCO)c(-c3sccc3CCO)s2)cc1CCO`
29.5 µM

Answer with reported TGI of `O=C(/C=C/c1ccc(Cl)cc1)c1ccc(Nc2ccnc3cc(Cl)ccc23)cc1`
> 100 µM

Answer with reported TGI of `NS(=O)(=O)c1cc(Br)c(N=Nc2ccc(O)c3ncccc23)c(Br)c1`
> 100 µM

Answer with reported TGI of `O=C(/C=C\c1ccc(Cl)c(Cl)c1)c1ccc(Cl)cc1Cl`
38 µM

Answer with reported TGI of COc1cc(/C=C/C(=O)CC(=O)/C=C/c2ccc(OC(=O)CCCCC3CCSS3)c(OC)c2)ccc1OC(=O)CCCCC1CCSS1 (configuration not stated)
> 100 µM

Answer with reported TGI of `Cc1cc(N(CCOS(C)(=O)=O)CCOS(C)(=O)=O)ccc1C=O`
> 100 µM

Answer with reported TGI of `CCCCCCOc1ccc(C(=O)NOC)cc1`
> 100 µM

Answer with reported TGI of COC(=O)C1=C(C)NC(C)=C(C(=O)OCCCN2CCC(c3ccccc3)(c3ccccc3)CC2)C1c1cccc([N+](=O)[O-])c1 (configuration not stated)
3.39 µM

Answer with reported TGI of CN(C)c1ccc(S(=O)Nc2ccccc2)cc1 (configuration not stated)
> 100 µM

====

Would you kindly list TGI for each of these compounds?
test system: UO-31 renal; assay: NCI tumour cell line growth inhibition, 48 h

Answer with reported TGI of `CN(C)c1nc(=Nc2ccc(N=c3nc(N(C)C)ss3)cc2)ss1`
> 81.6 µM

Answer with reported TGI of `Nc1ncnc2n[nH]c(Nc3ccc(F)cc3)c12`
> 100 µM

Answer with reported TGI of COc1ncnc(NS(=O)(=O)c2ccc(N=C3C(=O)N(CN4CCN(c5c(F)cc6c(=O)c(C(=O)O)cn(C7CC7)c6c5OC)CC4C)c4ccc(Cl)cc43)cc2)c1OC (stereo not drawn)
> 50 µM

====

Would you kindly list TGI for each of these compounds?
system: DU-145 prostate; test: NCI tumour cell line growth inhibition, 48 h

Answer with reported TGI of `CC[C@H](Nc1ncnc2nc[nH]c12)c1oc2ccccc2c(=O)c1-c1cccc(F)c1`
> 100 µM

Answer with reported TGI of `Cc1ccc(S(=O)(=O)Nc2ccccc2C(=O)c2ccc(C)c(C)c2)cc1`
> 100 µM

Answer with reported TGI of `CCN(CC)c1ccc(-c2cc(-c3cc(OC)c(OC)c(OC)c3)nc(N3CCOCC3)c2C#N)cc1`
> 100 µM

Answer with reported TGI of `CC(=N/N=C/c1ccccn1)/C(C)=N/N=C(C)/C(C)=N/N=C(C)/C(C)=N/N=C(C)/C(C)=N\N=C\c1ccccn1`
> 100 µM

Answer with reported TGI of CC1CCC(C(=O)O)(C(Br)C(=O)O)CC1 (stereo not drawn)
> 100 µM

Answer with reported TGI of CN(C)C1(N(C)C)Oc2c(c(=O)n(C)c(=O)n2C)C(c2ccc(Br)cc2)C1(F)F (stereo not drawn)
> 100 µM

Answer with reported TGI of `CCOC(=O)c1ccc(NCC#CCN2CCOCC2)cc1`
> 100 µM

Answer with reported TGI of COc1cc(/C=C/C(=O)CC(=O)/C=C/c2ccc(OC(=O)CCCCC3CCSS3)c(OC)c2)ccc1OC(=O)CCCCC1CCSS1 (stereo not drawn)
> 100 µM

====

test system: NCI-H226 lung; assay: NCI tumour cell line growth inhibition, 48 h
assay-readout: TGI

Answer with reported TGI of `COc1cc(/C=C/c2cc(O)c(C(C)=O)c(O)c2)cc2c1O[C@]1(C)CC[C@@H](O)C(C)(C)[C@H]1C2`
54.2 µM

Answer with reported TGI of C#CC1(O)CCC2C3CCc4cc(Oc5nc(F)nc(-c6c7ccccc7c7sc8ccccc8n67)n5)ccc4C3CC[C@@]21C (stereo not given in full)
> 100 µM

Answer with reported TGI of `N=C(N)SCc1ccc2c(c1)Sc1ccccc1O2`
31.1 µM

Answer with reported TGI of CC1(C)CCCC2OC2CCC(C)(C)C1=O (stereo not given)
> 100 µM

Answer with reported TGI of `Cc1cc(O)c(/C=N/C(=S)NCc2ccccc2)c(=O)o1`
> 100 µM

Answer with reported TGI of C=C1NC(=O)C(C(C)CC)NC(=O)C2CSCC(NC(=O)CCC(=O)O)C(=O)NC(Cc3ccccc3)C(=O)NC(C)C(=O)NC(CC(C)CC)C(=O)NC(C(=O)NC(Cc3ccccc3)C(=O)N3CCCC3C(=O)N2)C(C)OC(=O)C(CO)NC(=O)C(C(O)COC)N(C)C(=O)C(C(C)C)NC(=O)C(CC(C)CC)NC1=O (stereo not given)
> 6 µM

Answer with reported TGI of CC1(C)C2CCC(=O)C1CC2 (stereo not given)
> 100 µM

Answer with reported TGI of COC(=O)C1=C(C)NC(C)=C(C(=O)OCCCN2CCC(c3ccccc3)(c3ccccc3)CC2)C1c1cccc([N+](=O)[O-])c1 (stereo not given)
18.2 µM

Answer with reported TGI of `COc1ccc2c(C)cc(=O)oc2c1OC`
> 100 µM

Answer with reported TGI of `O=S(=O)(CCn1c(Sc2ccccc2)c(Sc2ccccc2)c2ccccc21)c1ccccc1`
> 100 µM

====

test system: MDA-MB-435; experiment: NCI tumour cell line growth inhibition, 48 h
Would you kindly list TGI for each of these compounds?

Answer with reported TGI of `CCN(CC)CCn1c(=O)c2cccnc2n2c3c(=O)n(C)c(=O)n(C)c3nc12`
> 100 µM

Answer with reported TGI of `N#Cc1c(-c2ccccc2)/c(=C\Nc2ccc(F)cc2)c(=O)n2c1nc1ccccc12`
> 100 µM

Answer with reported TGI of `Cc1cc2c(cc1Cl)SC(N(N(C)C)S(=O)(=O)c1ccc(Cl)cc1)=NS2(=O)=O`
> 100 µM

Answer with reported TGI of `Cc1ccc(C(=C2Sc3ccccc3S2)C(=C2Sc3ccccc3S2)c2ccc(C)s2)s1`
> 100 µM

Answer with reported TGI of CC1=NN(c2cccc(Cl)c2)C2(C1=C/C=C/c1ccccc1)C(Cl)C(=O)N2c1nc2ccccc2s1 (centres undefined)
> 58.4 µM

Answer with reported TGI of CN(C)C1(N(C)C)Oc2c(c(=O)n(C)c(=O)n2C)C(c2ccc(Br)cc2)C1(F)F (centres undefined)
> 100 µM

Answer with reported TGI of `O=C(/C=C/c1ccc(Cl)cc1)c1ccc(Nc2ccnc3cc(Cl)ccc23)cc1`
> 100 µM

Answer with reported TGI of `Cc1cccc(NC(=O)Cn2cnc3sc(C(=O)OC(C)C)c(C)c3c2=O)c1`
> 50 µM

Answer with reported TGI of `CS(=O)(=O)OCC(CCl)(CCl)CCl`
> 100 µM

====

system: T-47D breast; experiment: NCI tumour cell line growth inhibition, 48 h
Would you kindly list TGI for each of these compounds?

Answer with reported TGI of `Cc1cc(C(=O)CCCCOc2ccc(C3=NCCO3)cc2)c(C)n1C`
65.6 µM

Answer with reported TGI of Cc1cccc2c1CC1(C2)Cc2c(C)cccc2C1=O (configuration not stated)
> 100 µM

Answer with reported TGI of `Cc1cc(I)cc(CN(C)CCCN2CCCCC2)c1O`
43 µM

Answer with reported TGI of `O=C(/C=C/c1ccc(Cl)cc1)c1ccc(Nc2ccnc3cc(Cl)ccc23)cc1`
> 100 µM

Answer with reported TGI of `CC(=N/N=C/c1ccccn1)/C(C)=N/N=C(C)/C(C)=N/N=C(C)/C(C)=N/N=C(C)/C(C)=N\N=C\c1ccccn1`
> 100 µM

Answer with reported TGI of `O=C1NCC2(CCN(CCCC3(c4ccc(F)cc4)OCCO3)CC2)N1c1ccccc1`
> 100 µM

Answer with reported TGI of `CCN(CCCN(CC)C(=O)Nc1c(C)cccc1C)C(=O)Nc1c(C)cccc1C`
> 100 µM

Answer with reported TGI of COc1ccc2c(c1)OCC1Cc3ccccc3OC21 (configuration not stated)
> 100 µM

Answer with reported TGI of O=C1OC(O)[C@@H]2[C@H]1[C@H]1CC[C@@H]2O1 (some centres not stated)
42.6 µM

Answer with reported TGI of C=C(Br)C(C)(Br)CCC(Br)C(C)(C)Cl (configuration not stated)
44.1 µM

Answer with reported TGI of O=c1c2sccc2n(CC2COc3ccccc3O2)c(=O)n1O (configuration not stated)
> 100 µM

Answer with reported TGI of `N#Cc1c(-c2ccccc2)/c(=C\Nc2ccc(F)cc2)c(=O)n2c1nc1ccccc12`
> 100 µM

Origin of the recorded values: PubChem BioAssay (NCI)
